- Test system: PC-12
- ASSAY NOTES: Cytotoxicity in rat PC-12 cells assessed as reduction in cell viability at 10 uM incubated for 24 hrs by CCK-8 method
- Assay type: toxicity, cell-based
- EXPERIMENTAL SETUP: pc-12, 24 h
MEASURE: Activity (%)
Give the quantity in %, number only.

Guide cases for Activity, answers given:
COc1ccccc1NC(=O)C1=Cc2c(OC)cccc2OC1    81.8
COc1ccc(NC(=O)c2c[nH]c3c(Cl)cccc3c2=O)cc1    79.9
CC(C(O)c1ccc(O)cc1)N1CCC(Cc2ccccc2)CC1 (centres undefined)    82.3

Note Activity for the compound shown: COc1ccc(NC(=O)c2c[nH]c3ccccc3c2=O)cc1
81.1
